Reference source for all entries: PubChem BioAssay (EPA / NIEHS)

Assay: ATG_NRF2_ARE_CIS: Attagene CIS-FACTORIAL HepG2 Assay for human Nuclear Factor Erythroid 2 Related Factor 2 (NFR2) response to Antioxidant Response Elements (ARE) (AID 2282992)
Settings: HepG2 Attagene ARE/NRF2 reporter, transcription factor activity; actives raise or lower the signal
Active and inactive are the calls of the source. How the source made its calls: active means hit-call score of the fitted dose curve at least 0.9, where 1 is the maximum; inactive means score below 0.9.
Labels: active, inactive

CCCCC1CCCCC(=O)O1 (stereo unspecified)    inactive
CC(=O)c1ccc2ccccc2c1    inactive
C[N+](C)(C)CCO    active
CCC(CC)CO    inactive
O=C(C=Cc1ccccc1)OCCCc1ccccc1    active
CC(C)(O)C(=O)c1ccc(OCCO)cc1    inactive
O=c1cc[nH]cc1    inactive
CCC(=O)OC/C=C(\C)CCC=C(C)C    inactive
C=CC(C)CCCC(C)(C)O (stereo unspecified)    inactive
CCn1cc(C(=O)O)c(=O)c2ccc(C)nc21    inactive
CC(=O)OC(C)(C)C1CC=C(C)CC1 (stereo unspecified)    inactive
CC(C)N(c1ccccc1)C(C)C    inactive
CC(C)OB(OC(C)C)OC(C)C    inactive
CC/C=C\C#N    inactive
c1coc(CNc2ncnc3nc[nH]c23)c1    active
CCCCCCCCCC(=O)OCC    inactive

----------
Biological target: CCAAT/enhancer-binding protein beta (Homo sapiens) (UniProt P17676)
Sequence (P17676 whole entry, looked up): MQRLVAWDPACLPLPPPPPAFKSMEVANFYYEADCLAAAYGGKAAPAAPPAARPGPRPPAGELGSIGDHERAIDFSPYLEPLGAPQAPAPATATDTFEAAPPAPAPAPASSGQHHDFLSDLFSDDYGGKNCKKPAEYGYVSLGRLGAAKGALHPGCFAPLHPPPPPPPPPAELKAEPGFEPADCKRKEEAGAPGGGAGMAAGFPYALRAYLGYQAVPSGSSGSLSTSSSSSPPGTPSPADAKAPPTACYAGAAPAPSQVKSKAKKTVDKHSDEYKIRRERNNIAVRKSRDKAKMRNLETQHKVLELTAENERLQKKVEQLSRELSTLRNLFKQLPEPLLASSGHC
Assay: ATG_C_EBP_CIS: Attagene CIS-FACTORIAL HepG2 Assay for human CCAAT/Enhancer Binding Protein (C/EBP) beta (AID 2282927)
Settings: HepG2 Attagene cis-factorial transcription factor reporter; actives raise or lower the signal
Active and inactive are the calls of the source. The calls were made as follows: active = hit-call score of the fitted dose curve at least 0.9, where 1 is the maximum; inactive = score below 0.9.
Outcome codes: active, inactive

CC(=O)Nc1cc(S(=O)(=O)O)cc2cc(S(=O)(=O)O)c(N=Nc3ccccc3)c(O)c12    inactive
CCC(=O)OC/C=C(\C)CCC=C(C)C    inactive
O=c1cc(-c2ccc(O)cc2)oc2cc(O)cc(O)c12    active
CCCCCC#CC(=O)OC    inactive
CC(=O)c1ccc(C)cc1    inactive
CCCCOCCOC(=O)c1ccccc1C(=O)OCCOCCCC    inactive
NCCN1CCNCC1    inactive
Cc1cccc(C)c1    inactive
CCCCCCCCSCc1cc(C)c(O)c(CSCCCCCCCC)c1    inactive
CC(=O)OCC=C(C)CCC=C(C)CCC=C(C)C    inactive
Cc1ccccc1S    inactive
C=CCOCC(O)CO (centres undefined)    active
CC(C)C(=O)OCC=Cc1ccccc1    inactive
O=C(O)c1ccc(C(=O)O)c(C(=O)O)c1    inactive

----------
Read-out: Vascular cell adhesion molecule 1 (VCAM1), VCAM1 (gene 7412)
Assay: BSK_hDFCGF_VCAM1: BioMAP Diversity Plus: hDFCGF Assay for Vascular cell adhesion molecule 1 (VCAM1) Biomarker Activity (AID 2283065)
Conditions: primary human foreskin fibroblasts; actives raise or lower the signal
Calls of active or inactive are those of the source. How the source made its calls: active means hit-call score of the fitted dose curve at least 0.9, where 1 is the maximum; inactive means score below 0.9.
Labels: T for active, F for inactive

CC(C)(C)c1cccc(O)c1    F
CCCCCCCCCCCCS    T
CCC(=O)OCC=Cc1ccccc1    F
CC1=CC(C)C(C=O)C(C)C1 (centres undefined) (tested in a mixture with another compound)    F
CC(C)CCCC(C)(C)O    F
CCCCCCCCCC(=O)OCC    T
CC(C)Cc1ccc(C(C)C(=O)O)cc1 (centres undefined)    F
CCn1cc(C(=O)O)c(=O)c2ccc(C)nc21    F
O=S1(=O)CC(Cl)(Cl)C(Cl)(Cl)C1    T
C=C(F)C(=O)OC(C(F)(F)F)C(F)(F)F    F
O=C(c1ccc(OCCN2CCCCC2)cc1)c1c(-c2ccc(O)cc2)sc2cc(O)ccc12    T
CC(C)(CO)CO    F
CCCCCCCC1CCCC1=O (centres undefined)    F
c1ccc2c(c1)-c1ccc3ccc4cccc5cc-2c1c3c45    F

----------
Biological target: Retinoic acid receptor RXR-alpha (Homo sapiens)
Test: OT_NURR1_NURR1RXRa_1440: Odyssey Thera (OT) 24-hour HEK293T Protein Complementation Assay for Nurr1/retinoid X receptor (RXR) (AID 2283386)
Results filed as inconclusive are left out. The source made the active and inactive calls. Rule for the calls: active = hit-call score of the fitted dose curve at least 0.9, where 1 is the maximum; inconclusive = response in the unintended direction; inactive = score below 0.9.
EXPERIMENTAL READOUT: AC50

CCC(C)(C)C1CCC(=O)CC1    inactive
[Na+]    inactive
CCCC1CCC(=O)CC1    inactive
CC(=O)c1ccc(O)cc1    inactive
CC(C)(C)C1CCC(O)CC1 (stereo unspecified)    inactive
Cc1cccc(C)c1    inactive
NC(=O)c1cccnc1    82.4 µM (active)
CC(=O)C1=C(C)[C@@H]2C[C@@]3(C1)[C@H](C)CC[C@H]3C2(C)C    90 µM (active)
CCCCCCCCOC(C)=O    inactive
COC(=O)C(C)Oc1ccc(Oc2ncc(C(F)(F)F)cc2Cl)cc1 (stereo unspecified)    inactive
CC(C)CCCC(C)(C)O    inactive
CC(C)(CO)CO    inactive
CC1=CCC(=C(C)C)CC1    77.4 µM (active)
OC[C@@H](O)[C@H](O)[C@@H](O)[C@@H](O)CO    inactive
COC(=O)c1ccc(C(=O)OC)cc1    inactive
C=CC(O)CCCCC (stereo unspecified)    inactive
CCCc1ccc(O)cc1    inactive
C=CCCCCCCCCC(=O)OCC    inactive
CCCCCC1CCC(=O)O1 (stereo unspecified)    inactive
CCCCCCCC(=O)N(C)C    inactive
CC12CCC(C1)C(C)(C)C2O (stereo unspecified)    inactive

----------
Target: Hepatocyte nuclear factor 6 (Homo sapiens)
Experiment: ATG_HNF6_CIS: Attagene CIS-FACTORIAL HepG2 Assay for human Hepatocyte Nuclear Factor 6 (HNF6) (AID 2282952)
Details: HepG2 Attagene cis-factorial HNF6 reporter transcription; actives raise or lower the signal
Activity calls are given as the source filed them. Rule for the calls: active = hit-call score of the fitted dose curve at least 0.9, where 1 is the maximum; inactive = score below 0.9.
Classes used: t (active), f (inactive)

CCCC[N+](C)(CCCC)CCCC    f
CC/C=C\CCOC(=O)C(C)C    f
CC1=CC(C)C(C=O)C(C)C1 (stereo not drawn) (tested in a mixture with another compound)    f
C=C(C)C(=O)OCCC(C)OC(=O)C(=C)C (stereo not drawn)    f
CCC(C)(C)c1cc(O)c(C(C)(C)CC)cc1O    t
C[C@H](CCC(=O)O)[C@H]1CC[C@H]2[C@@H]3CC[C@@H]4C[C@H](O)CC[C@]4(C)[C@H]3CC[C@]12C    t
CC(C)COC(=O)c1ccccc1    f
CCOC(=O)CC(C)C    f
CCCCCCCCCCCCCC(=O)OCC    f
CCC(C)(C)C1CCC(OC)CC1 (stereo not drawn)    f
CCNC(=S)NCC    f
C=C(C)C(=O)OCCC[Si](OC)(OC)OC    f
CC(C)OB(OC(C)C)OC(C)C    f

----------
Target: Estrogen receptor (Homo sapiens) (UniProt P03372)
Sequence (P03372 whole entry, looked up): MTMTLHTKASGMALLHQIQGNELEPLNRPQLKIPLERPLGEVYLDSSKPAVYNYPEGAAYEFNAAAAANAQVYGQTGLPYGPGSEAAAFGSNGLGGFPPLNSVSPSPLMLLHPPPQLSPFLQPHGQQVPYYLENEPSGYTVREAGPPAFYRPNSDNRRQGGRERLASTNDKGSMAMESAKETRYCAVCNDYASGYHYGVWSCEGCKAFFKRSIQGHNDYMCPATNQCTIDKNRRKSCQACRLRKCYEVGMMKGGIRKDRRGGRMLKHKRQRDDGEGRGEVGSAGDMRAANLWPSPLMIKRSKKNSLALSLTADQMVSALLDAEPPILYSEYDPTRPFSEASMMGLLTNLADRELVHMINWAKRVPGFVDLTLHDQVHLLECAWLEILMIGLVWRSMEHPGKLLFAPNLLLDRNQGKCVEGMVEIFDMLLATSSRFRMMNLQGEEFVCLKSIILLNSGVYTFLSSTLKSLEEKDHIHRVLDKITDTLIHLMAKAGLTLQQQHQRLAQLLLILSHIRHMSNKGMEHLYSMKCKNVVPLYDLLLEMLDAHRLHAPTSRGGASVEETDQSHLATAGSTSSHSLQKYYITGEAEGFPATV
Test: ATG_ERa_TRANS: Attagene TRANS-FACTORIAL HepG2 Assay for human Estrogen Receptor alpha (ERa) (AID 2282970)
Conditions: HepG2 Attagene TRANS ERa GAL4 reporter, mRNA
Inconclusive results are not listed. Active and inactive are the calls of the source. How the source made its calls: active means hit-call score of the fitted dose curve at least 0.9, where 1 is the maximum; inconclusive means response in the unintended direction; inactive means score below 0.9.
Possible outcomes: label 1 (active), label 0 (inactive)

Cc1ccc(C(C)(C)O)cc1    label 0
CN(C)C(=O)Nc1ccccc1    label 0
Cc1cc(O)c(C)c(C)c1O    label 1
[Cl][Dy]([Cl])[Cl]    label 0
CN(C)CCC=C1c2ccccc2CCc2ccccc21    label 0
NCCN1CCNCC1    label 0
CN(C)c1ccc(C=O)cc1    label 0
CCC(=O)OC(C)(C)C1CC=C(C)CC1 (stereo not given)    label 1
NC(=O)c1cnccn1    label 0
CCC(C)COC(=O)CC(C)C (stereo not given)    label 0
CC(O)COCC(C)O (stereo not given)    label 0
CC(=O)CCc1ccc(O)cc1    label 0
C=C(C)C(=O)OCCN(C)C    label 0
OCCN1CCOCC1    label 1
NC(N)=NC(N)=NCCc1ccccc1    label 0

----------
Read-out: Pselectin, SELP (gene 6403)
Experiment: BSK_4H_Pselectin: BioMAP Diversity Plus: 4H Assay for Pselectin Biomarker Activity (AID 2283026)
Details: primary human endothelial cells (HUVEC); actives raise or lower the signal
The source made the active and inactive calls. How the source made its calls: active means hit-call score of the fitted dose curve at least 0.9, where 1 is the maximum; inactive means score below 0.9.
Classes used: active, inactive

CCOC(=O)CCCCCCCCC(=O)OCC    inactive
O=C(O)C(F)(F)OC(F)(F)C(F)(F)OC(F)(F)C(F)(F)C(F)(F)C(F)(F)F    inactive
CCCCN(CCO)CCO    inactive
CCCCCCCCCCCCS    active
CCCO[Si](OCCC)(OCCC)OCCC    inactive
CC(C)Cc1ccc(C(C)C(=O)O)cc1 (centres undefined)    inactive
CC(=O)OCC=C(C)CCC=C(C)CCC=C(C)C    inactive
CC(C)CCCC(C)(C)O    inactive
OCCN1CCOCC1    inactive
CCCCOCCOCCO    inactive
CC(=O)OC(C)(C)C1CC=C(C)CC1 (centres undefined)    active
C=C(F)C(=O)OC(C(F)(F)F)C(F)(F)F    inactive
O=C1OC2(c3ccc(O)cc3Oc3cc(O)ccc32)c2ccccc21    inactive
CCn1cc(C(=O)O)c(=O)c2ccc(C)nc21    inactive
